Origin of values: paper PMC4323994

# Experimental System: HLA-DR molecule, DRB1*0401 (human)
# Assay Notes: ELISA
Where no end group is shown, it is not given here.
Readout Type: IC50

Please indicate IC50 recorded for GKQLYNVEATSYALLALLQLKDFD (also: amino and carboxyl ends blocked) [C3d_(223–246)] < 2000 nM
